target.of.assay: Ubiquitin carboxyl-terminal hydrolase 8 (Homo sapiens) (UniProt P40818)
Sequence (P40818 whole entry, looked up): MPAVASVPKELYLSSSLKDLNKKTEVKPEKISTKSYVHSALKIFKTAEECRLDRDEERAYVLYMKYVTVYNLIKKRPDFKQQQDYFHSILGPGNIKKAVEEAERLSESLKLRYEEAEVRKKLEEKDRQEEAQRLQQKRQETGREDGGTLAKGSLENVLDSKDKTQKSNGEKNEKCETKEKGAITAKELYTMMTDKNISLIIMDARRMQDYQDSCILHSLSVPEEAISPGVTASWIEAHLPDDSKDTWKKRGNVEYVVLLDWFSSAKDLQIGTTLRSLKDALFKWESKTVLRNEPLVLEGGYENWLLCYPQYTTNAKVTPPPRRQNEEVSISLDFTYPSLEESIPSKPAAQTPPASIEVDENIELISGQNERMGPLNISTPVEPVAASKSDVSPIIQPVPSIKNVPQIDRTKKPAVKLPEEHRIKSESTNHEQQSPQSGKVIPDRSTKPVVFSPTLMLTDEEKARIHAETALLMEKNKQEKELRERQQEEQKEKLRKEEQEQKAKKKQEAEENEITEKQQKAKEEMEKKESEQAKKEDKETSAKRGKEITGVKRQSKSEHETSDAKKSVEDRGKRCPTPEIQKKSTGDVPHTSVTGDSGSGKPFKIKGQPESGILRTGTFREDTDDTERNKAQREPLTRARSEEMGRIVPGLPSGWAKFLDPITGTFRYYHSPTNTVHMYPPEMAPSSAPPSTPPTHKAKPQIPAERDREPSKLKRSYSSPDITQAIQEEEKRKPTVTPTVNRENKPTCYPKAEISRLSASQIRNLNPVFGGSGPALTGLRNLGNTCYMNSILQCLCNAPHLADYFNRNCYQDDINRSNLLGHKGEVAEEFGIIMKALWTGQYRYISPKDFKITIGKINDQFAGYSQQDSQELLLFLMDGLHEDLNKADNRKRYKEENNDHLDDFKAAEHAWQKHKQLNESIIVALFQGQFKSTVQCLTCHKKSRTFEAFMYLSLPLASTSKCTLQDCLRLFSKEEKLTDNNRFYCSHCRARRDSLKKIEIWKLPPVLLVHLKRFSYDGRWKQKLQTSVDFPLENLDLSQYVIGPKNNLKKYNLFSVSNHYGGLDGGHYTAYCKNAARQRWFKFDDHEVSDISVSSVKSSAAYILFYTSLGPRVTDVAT
protocol.summary: Ubiquitin-specific protease 8 inhibitors, concentration-effect, biochemical, validation of initial actives (AID 1645862);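 note: potency reflects inhibition of USP8 cleavage of a ubiquitin rhodamine substrate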
condition: recombinant USP8 deubiquitinase activity assay
Active and inactive are the calls of the source. The rule behind the calls is not given here.
// classify into Y for active, N for inactive

Examples with answers:
{"columns": ["molecule", "answer.label"],
 "data": [
  ["O=C(COc1ccccc1)Nc1ccc(-c2nc3cnccc3o2)c(O)c1", "N"],
  ["CCc1ccc([C@@H]2c3c(C)nn(C)c3NC(=O)[C@H]2NC(=O)c2ccc(OC)c(OC)c2)cc1", "N"],
  ["Cc1cccc(-n2ccnc(SCC(=O)Nc3ccc(Cl)cc3F)c2=O)c1", "N"],
  ["CC1Oc2cc3c(-c4c(O)cc(O)c5c(O)c6c(cc45)OC(C)C(C)C6=O)c(O)cc(O)c3c(O)c2C(=O)C1C (centres undefined)", "N"],
  ["COc1ccc2nc(N3CC(C(=O)Nc4ccc(C(N)=O)cc4)C3)sc2c1", "N"],
  ["COc1cccc(-c2cncc(C3CCN(S(=O)(=O)N(C)C)CC3)n2)c1", "N"]
]}

Problem: What outcome does the record of this test show for "CSc1ccc(CNC(=O)Cn2nc(C)c3c(C)n(-c4ccccc4)nc3c2=O)cc1" ?
Result: Y

Problem: What call does the record list for COc1cccc(C2c3[nH]c4ccccc4c3C[C@@H]3C(=O)N(C4CC4)CC(=O)N23)c1 (some centres undefined) ?
Result: N

Problem: Hi team, can someone confirm the assay call for "COc1ccc(C(=O)CSc2nnc(-c3cc4ccccc4o3)n2C)cc1" ?
Result: N

###

target.of.assay: Ubiquitin carboxyl-terminal hydrolase 8 (Homo sapiens)
protocol.summary: Ubiquitin-specific protease 8 inhibitors, concentration-effect, biochemical, validation of initial actives (AID 1645862);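 note: potency reflects inhibition of USP8 cleavage of a ubiquitin rhodamine substrate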
condition: recombinant USP8 deubiquitinase activity assay
The source made the active and inactive calls. The rule behind the calls is not given here.
Select the matching outcome among label 1 = active, label 0 = inactive

{"columns": ["compound", "target.of.assay", "answer.label"],
 "data": [
  ["COc1cc(O)cc2c1C(=O)OC(C)CCCCCCC2 (stereo not given)", "Ubiquitin carboxyl-terminal hydrolase 8 (Homo sapiens)", "label 0"],
  ["C[C@@H]1OC2=C(C(=O)c3cccc(O)c3C2=O)[C@H](O)[C@@H]1O", "Ubiquitin carboxyl-terminal hydrolase 8 (Homo sapiens)", "label 1"]
]}

Problem: Tell me the recorded outcome of this test for "CSc1ncccc1C(=O)NC1(O)C(=O)c2ccccc2C1=O" .
Result: label 1

Problem: Which outcome was entered for the compound O=C(CCCC(=O)N(c1ccc2c(c1)OCCO2)C(C(=O)NC1CCCCC1)c1ccc(F)cc1)Nc1ccccn1 (stereo not given) in this test?
Result: label 0

Problem: Assay result, entry "Cc1ccc(C(=O)c2cn(CC(=O)Nc3ccccc3)c3ccccc3c2=O)cc1" — outcome?
Result: label 0

Problem: Please indicate how the test categorized "Cc1ccc(NC(=O)COc2ccccc2/C=C2/NC(=O)N(Cc3ccc(F)cc3)C2=O)cc1" .
Result: label 0

Problem: Could you kindly confirm the outcome this assay logged for "COC(=O)c1cc2c(ccn2-c2ccc(F)cc2)n1CC(=O)NC1CCCCC1" ?
Result: label 0

Problem: How did this test come out for "CCOc1ccc(NS(=O)(=O)c2ccc(NC(=O)Nc3ccccc3)cc2)cc1" ?
Result: label 0

Problem: Just curious, what result did "CCOC(=O)c1ccc(NC(=O)Cn2c(=O)n(CC(=O)NCc3ccco3)c(=O)c3ccccc32)cc1" get here?
Result: label 0

Problem: Hi team, can someone confirm the assay call for "N#Cc1c(-c2ccc(Cl)cc2)cc(-c2cccc(Br)c2)[nH]c1=O" ?
Result: label 1

###

target.of.assay: Ubiquitin carboxyl-terminal hydrolase 8 (Homo sapiens)
protocol.summary: Ubiquitin-specific protease 8 inhibitors, concentration-effect, biochemical, validation of initial actives (AID 1645862);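 note: potency reflects inhibition of USP8 cleavage of a ubiquitin rhodamine substrate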
condition: recombinant USP8 deubiquitinase activity assay
The source made the active and inactive calls. How the calls were made is not given here.
One label from this list, please: T (active), F (inactive)

{"columns": ["molecule", "answer.label"],
 "data": [
  ["COc1ccccc1NC(=O)C1=C(C)Nc2nc(SCc3ccccc3F)nn2C1c1ccccn1 (stereo not given)", "F"]
]}

Problem: Which outcome was assigned to "CCc1nnc(C(=O)Nc2ccc(C(=O)NCc3ccc(OC(C)C)cc3)cc2)s1" in this test?
Result: F

Problem: Called result for "O=C(Nc1cc(F)c2nc(N3CCOCC3)ccc2c1)C1CC1"
Result: T

Problem: Any idea what this test logged for COc1ccc(N2CC(c3nnc(NC(=O)CCc4ccccc4)s3)CC2=O)cc1 (stereo not given) ?
Result: F

Problem: Tell me the assay call for "COc1ccc2c(c1)c(CC(=O)Nc1ccc(N3CCOCC3)cc1)c(C)n2C(=O)c1ccc(Cl)cc1" please.
Result: F

###

target.of.assay: UniProt:P40818
protocol.summary: Ubiquitin-specific protease 8 inhibitors, concentration-effect, biochemical, validation of initial actives (AID 1645862);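 note: potency reflects inhibition of USP8 cleavage of a ubiquitin rhodamine substrate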
condition: recombinant USP8 deubiquitinase activity assay
Activity calls are given as the source filed them. The rule behind the calls is not given here.
One label from this list, please: active, inactive

Worked examples follow.
{"columns": ["compound", "answer.label"],
 "data": [
  ["COc1ccc(CNC(=O)c2ccc3c(=O)nc4c(-c5cccc(C)c5)n[nH]n4c3c2)cc1", "inactive"],
  ["O=C(NC1CCCC1)c1ccc(-c2ccc(S(=O)(=O)NCc3ccccc3)cc2)cc1", "inactive"],
  ["COc1ccc(OC)c(NC(=O)Cn2c(=O)n(CC3CCC(C(=O)NCCc4ccccc4)CC3)c(=O)c3ccccc32)c1 (stereo not given)", "inactive"],
  ["COc1cccc(C2c3[nH]c4ccccc4c3C[C@@H]3C(=O)N(CC(O)c4ccccc4)CC(=O)N23)c1 (stereo not given in full)", "inactive"],
  ["O=C(CCc1ccc(S(=O)(=O)N2CCOCC2)cc1)OCC(=O)c1ccc(-c2ccccc2)cc1", "inactive"],
  ["CCc1ccccc1NC(=O)Cn1c(=O)n(CC(=O)NCc2ccccc2Cl)c(=O)c2sccc21", "inactive"],
  ["O=C(NCCc1cccnc1)c1ccn(-c2ccc3ccccn23)n1", "inactive"],
  ["COc1ccc(Cn2nc(C)cc2NC(=O)c2cccc(F)c2)cc1OC", "inactive"]
]}

Problem: Recorded test call requested for "Cc1nnc(-c2cc(S(=O)(=O)N3CCN(c4ccc(F)cc4)CC3)c[nH]2)o1"
Result: inactive

Problem: Field: outcome | Entry: "O=C(CCn1c(=O)c2ccccc2n(Cc2ccccc2F)c1=O)NCc1ccco1"
Result: inactive

Problem: Hey, what did the test say about "COCCCNC(=O)c1ccc(Cn2c(=O)c3ccccc3n(CC(=O)Nc3ccc(OC)cc3)c2=O)cc1" ?
Result: inactive

Problem: Hello, I am checking results. What call was entered for "O=c1c(O)c(-c2ccc(O)c(O)c2)oc2cc(O)cc(O)c12" ?
Result: active

Problem: Please share the test call associated with "COc1c(O)cc(CC(=O)O)c(C(C)=O)c1O" .
Result: active

Problem: Which outcome was entered for the compound Cc1cc(N2CCOCC2)nc(N2CCN(C(=O)C(C)Oc3ccccc3)CC2)n1 (stereo not given) in this test?
Result: inactive

Problem: Hi team, can someone confirm the assay call for "Cc1ccc(NC(=O)CSc2nnc(-c3n[nH]c4c3CCC4)n2N)cc1C" ?
Result: inactive

###

target.of.assay: Ubiquitin carboxyl-terminal hydrolase 8 (Homo sapiens) (UniProt P40818)
protocol.summary: Ubiquitin-specific protease 8 inhibitors, concentration-effect, biochemical, validation of initial actives (AID 1645862);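 note: potency reflects inhibition of USP8 cleavage of a ubiquitin rhodamine substrate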
condition: recombinant USP8 deubiquitinase activity assay
Activity calls are given as the source filed them. The rule behind the calls is not given here.
Parameter call: string, one of active, inactive

Worked examples follow.
{"columns": ["compound", "target.of.assay", "answer.label"],
 "data": [
  ["O=C(CNS(=O)(=O)c1ccc(F)cc1)N1CCCC(c2nnc3ccccn23)C1 (centres undefined)", "Ubiquitin carboxyl-terminal hydrolase 8 (Homo sapiens) (UniProt P40818)", "inactive"],
  ["COc1cc(NC(=O)Cn2c(=O)n(-c3ccc(CC(=O)NCc4ccco4)cc3)c(=O)c3ccccc32)cc(OC)c1", "Ubiquitin carboxyl-terminal hydrolase 8 (Homo sapiens) (UniProt P40818)", "inactive"],
  ["O=C(CSc1oc(-c2ccc(F)cc2)nc1S(=O)(=O)c1ccc(F)cc1)Nc1ccc(F)cc1", "Ubiquitin carboxyl-terminal hydrolase 8 (Homo sapiens) (UniProt P40818)", "inactive"],
  ["CCn1cc2c(n1)c(=O)n(Cc1ccccc1)c(=O)n2CC(=O)Nc1ccc(OC)cc1", "Ubiquitin carboxyl-terminal hydrolase 8 (Homo sapiens) (UniProt P40818)", "inactive"],
  ["Cc1c(OCC(=O)NCc2ccccc2Cl)ccc2c3c(c(=O)oc12)CCC3", "Ubiquitin carboxyl-terminal hydrolase 8 (Homo sapiens) (UniProt P40818)", "inactive"],
  ["O=C(Nc1ccccc1)Nc1ccc(F)c(-c2nnc(-c3ccccc3)o2)c1", "Ubiquitin carboxyl-terminal hydrolase 8 (Homo sapiens) (UniProt P40818)", "inactive"]
]}

Problem: Give the logged outcome of this assay for the following compound: "Cc1cccc(OCCn2c(CCNC(=O)C3CCCCC3)nc3ccccc32)c1"
Result: inactive

Problem: Each compound tested received a call. Report the one for COc1cccc(C(=O)Nc2ccc(SC(C(=O)Nc3ccccc3)c3ccccc3)cc2)c1 (centres undefined) .
Result: inactive
